Molecular target: DLG1_2, Q12959
Sequence (Q12959 314-412): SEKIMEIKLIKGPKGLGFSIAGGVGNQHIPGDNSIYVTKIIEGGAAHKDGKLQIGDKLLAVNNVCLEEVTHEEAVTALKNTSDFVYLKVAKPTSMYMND
Test: holdup assay
Set-up: key: below the threshold = too weak to quantify, mostly under pKd 3.1 to 4
Settings: plain residues with an end cap or a label only (N-terminal biotin on a linker: ttds)
Here the recorded pKd is given for each entry.
readout: pKd

>>> test_result("SKPTRRETEV [HPV35-E6, P27228]")
5.64
>>> test_result("RLQRRRETQV [HPV18-E6, P06463]")
5.78
>>> test_result("RLPKIKETTV [FRMPD4, Q14CM0]")
6.06
>>> test_result("RHTTSTETAV [HPV30-E6, P36809]")
5.63
